study_target: T1, RPtag(small) Nd2, Cd4 (Thermoanaerobacter tengcongensis)
T1 peptide: RhodamineB-KIPNFIPAELKLITK
experiment_summary: fluorescence anisotropy; 2 nM rhodamine Nd2Cd4, unlabeled RPtag large variant titrated; bar of Ka = 1/Kd, right axis
No end group written: not given here. *: point of attachment. RhodamineB = CCN(CC)c1ccc2c(-c3ccccc3C(=O)*)c3ccc(=[N+](CC)CC)cc-3oc2c1
property_measured: binding result

• d126a (designed binder, also called RPtag(large) D126A) single chain: MGSSCHHHHHHSQDPNSSSMKEGKTIGLVISTLNNPFFVTLKNGAEEKAKELGYKIIVEDSQNDSSKELSNVEDLIQQKVDVLLINPVDSDAVVTAIKEANSKNIPVITIDRSANGGDVVSHIASANVKGGEMAAEFIAKALKGKGNVVELEGIPGASAARDRGKGFDEAIAKYPDIKIVAKQAADFDRSKGLSVMENILQAQPKIDAVFAQNDEMALGAIKAIEAANRQGIIVVGFDGTEDALKAIKEGKMAATIAQQPALMGSLGVEMADKYLK = binds
• k129h (designed binder, also called RPtag(large) K129H) single chain: MGSSCHHHHHHSQDPNSSSMKEGKTIGLVISTLNNPFFVTLKNGAEEKAKELGYKIIVEDSQNDSSKELSNVEDLIQQKVDVLLINPVDSDAVVTAIKEANSKNIPVITIDRSANGGDVVSHIASDNVHGGEMAAEFIAKALKGKGNVVELEGIPGASAARDRGKGFDEAIAKYPDIKIVAKQAADFDRSKGLSVMENILQAQPKIDAVFAQNDEMALGAIKAIEAANRQGIIVVGFDGTEDALKAIKEGKMAATIAQQPALMGSLGVEMADKYLK = binds
